# Test: Human microsome stability assay
# Assay type: in vitro ADME
# Run Conditions: 1 μM compound, 0.5 mg/mL microsomal protein, 37° C.; detection limit 6.15 mL/min/kg
compounds and their reported Clearance of human microsome

{"columns": ["Compound", "Comparison Operator", "Clearance of human microsome (mL/min/kg)"],
 "data": [
  ["CS(=O)(=O)C1(c2nsc(C(=O)NC34CC(c5nc(-c6ccc(Cl)cc6)no5)(C3)C4)n2)CC1", "≤", 6.15],
  ["CS(=O)(=O)C1(c2ccc(C(=O)NC34CC(c5noc(-c6ccc(Cl)cc6)n5)(C3)C4)o2)CC1", "≤", 6.15],
  ["CS(=O)(=O)C1(c2ccc(C(=O)NC34CC(c5ccn(-c6ccc(Cl)cc6)n5)(C3)C4)o2)CC1", "=", 8.21],
  ["CS(=O)(=O)C1(c2nsc(C(=O)NC34CC(c5ccn(-c6ccc(Cl)cc6)n5)(C3)C4)n2)CC1", "≤", 6.15],
  ["CS(=O)(=O)C1(c2ccc(C(=O)NC34CC(c5ncc(-c6ccc(Cl)c(Cl)c6)s5)(C3)C4)o2)CC1", "=", 6.66],
  ["CS(=O)(=O)C1(c2nsc(C(=O)NC34CC(c5ccnc(-c6ccc(Cl)cc6)n5)(C3)C4)n2)CC1", "=", 10.71],
  ["CS(=O)(=O)C1(c2ccc(C(=O)NC34CC(c5nc(-c6ccc(Cl)nc6)cs5)(C3)C4)o2)CC1", "≤", 6.15]
]}

* * *

# Tested on: HBeAg
# Test: microbe, parasite or virus in culture
# Format: cell-based, HBV
# Run Conditions: Hepatitis B virus, read-out: HBeAg IC50
pIC50: −log10 of the molar value.
molecules and their reported pIC50

{"columns": ["Compound", "pIC50"],
 "data": [
  ["CS(=O)(=O)C1(c2ccc(C(=O)NC34CC(c5nc(-c6ccc(Cl)cc6)cs5)(C3)C4)o2)CC1", 6.92],
  ["CS(=O)(=O)C1(c2ccc(C(=O)NC34CC(c5csc(-c6ccc(Cl)cc6)n5)(C3)C4)o2)CC1", 7.05],
  ["CS(=O)(=O)C1(c2ccc(C(=O)NC34CC(c5ncc(-c6ccc(Cl)cc6)s5)(C3)C4)o2)CC1", 6.80],
  ["CS(=O)(=O)C1(c2nsc(C(=O)NC34CC(c5ccn(-c6ccc(Cl)cc6)n5)(C3)C4)n2)CC1", 7.10]
]}
